# System: NCI-H522 lung
# protocol: NCI tumour cell line growth inhibition, 48 h; in the data active = GI50 below about 0.43 µM; inactive = the rest
Outcomes: active, inactive

* CC1=C(C(=O)Nc2ccc3[nH]ncc3c2)C(c2ccc3ccccc3c2)CC(=O)N1 (stereo not drawn) | inactive
* CCc1c(Oc2ccc(C(C)=O)cc2)c2ccccc2[nH]c1=O | inactive
* COC(=O)CCCCN=Cc1c(O)c(O)c(C(C)C)c2cc(C)c(-c3c(C)cc4c(C(C)C)c(O)c(O)c(C=NCCCCC(=O)OC)c4c3O)c(O)c12 | inactive
* COC(=O)c1cc2c3ccccc3[nH]c2c2ncccc12 | inactive
* COc1ccc(/C(=C2\O[C@@H]([C@H]3COC(C)(C)O3)[C@H]3OC(C)(C)O[C@@H]23)c2cc(OC)c(OC)c(OC)c2)cc1O | inactive
* O=C1c2cccc(NCCN=Cc3cc(O)ccc3O)c2C(=O)c2c(NCCN=Cc3cc(O)ccc3O)cccc21 | inactive
* CSc1cc(N=Nc2nc3ccccc3s2)c2ccccc2c1O | inactive
* COc1ccc(C2=NN(C(=O)c3cc(OC)c(OC)c(OC)c3)C(c3ccc(C#N)cc3)C2)cc1OC (stereo not drawn) | active
* CC[CH2][Pb]([CH2]CC)([CH2]CC)[O]C(=O)C(F)(F)F | active
* Nc1ccn(C2O[C@H](CO)[C@@H](O)[C@@H]2O)c(=O)n1 (stereo partly drawn) | inactive
* CC1=C(CCCNS(C)(=O)=O)C2=C(C)C3(CC3)[C@@](C)(O)C(=O)C2=C1 | inactive
* O=c1oc2ccc(F)cc2c(=O)n1-c1ccc(F)cc1F | inactive
* CCNCCNc1cc(-c2ccc(C(=O)OC)cc2)c(C#N)c2nc3ccccc3n12 | inactive

====

# System: CCRF-CEM leukemia
# protocol: NCI tumour cell line growth inhibition, 48 h
Measured GI50 by item
property-measured: GI50

- CC1=C(C(=O)Nc2ccc3[nH]ncc3c2)C(c2ccc3ccccc3c2)CC(=O)N1 (configuration not stated): > 25000 nM
- Cc1ccc(CS/C(=C\c2ccc([N+](=O)[O-])cc2)C(=O)c2ccc(F)cc2)cc1: 2230 nM
- COc1ccc2c(c1)c(-c1nc(-c3cn(C)c4ncccc34)cs1)cn2CCCN1CCCCC1: 2050 nM
- CC1=C(CCCNS(C)(=O)=O)C2=C(C)C3(CC3)[C@@](C)(O)C(=O)C2=C1: 44100 nM
- CN(C)CCNc1cc(-c2ccccc2)nc2ccccc12: 4430 nM
- Cc1ccc2c(c1)C(=O)/C(=C/c1ncc([N+](=O)[O-])n1C)O2: 324 nM
- O=C1c2cccc(NCCN=Cc3cc(O)ccc3O)c2C(=O)c2c(NCCN=Cc3cc(O)ccc3O)cccc21: 351 nM

====

# Tested on: MOLT-4 leukemia
# protocol: NCI tumour cell line growth inhibition, 48 h
Measured TGI by item
property-measured: TGI

- Cc1c(F)c(N)c2c(=O)cc(-c3ccc(NC(=O)CN(C)C)c(F)c3)oc2c1F: > 71.8 µM
- OC1C2[C@@H](O)CCCN2C[C@@H](O)[C@H]1O (stereo not given in full): > 100 µM
- COc1cc(C2c3cc4c(cc3C(NCC(O)CO)C3COC(=O)[C@H]23)OCO4)cc(OC)c1OC (stereo not given in full): > 100 µM
- O=[N+]([O-])/C=C\c1ccc(Cl)c(Cl)c1: 6.9 µM
- COc1ccc(OC)c(NC(=O)C(=O)C(C(C)=O)c2nc3ccc(Cl)cc3[nH]c2=O)c1 (stereo not given): > 50 µM
- Cc1ccc(-c2c(C#N)c(-c3ccccc3)n(NS(=O)(=O)c3ccccc3)c(=O)c2C#N)cc1: 72.6 µM
- NC(N)=NS(=O)(=O)c1ccc(NCc2c3ccccc3[n+]([O-])c3ccccc23)cc1: 43.8 µM
- COc1cc2c3c(n(C)c(=O)c2cc1OC)-c1cc2c(cc1/C3=C\CCCN1C(=O)c3ccccc3C1=O)OCO2: 5.17 µM
- COc1ccc(-n2c(=O)c3[nH]cnc3n(-c3ccc(OC)cc3)c2=S)cc1: > 100 µM
- Cc1nc2cccc([N+](=O)[O-])c2c(NCCCN(C)C)c1C: > 85.1 µM
- O=C(O)Cn1ccc(=O)c2ccc([N+](=O)[O-])cc21: > 100 µM
- COC(=O)C[C@H]1CCC2(OCCO2)[C@]1(C)C(=O)OC: > 100 µM
- c1ccc(C2C3=C(Nc4ncnn42)c2ccccc2C3)cc1 (stereo not given): > 100 µM
- CC(C)CC(=O)[O-].CC(C)CC(=O)[O-].N.N.N.N.[Co+3].[O-][Cl+3]([O-])([O-])[O-]: > 100 µM
- N.N.N.O=[N+]([O-])[O-].O=[N+]([O-])[O-].O=[N+]([O-])[O-].O=[N+]([O-])[O-].[Co+3]: > 100 µM
- CC(=O)Nc1ccccc1Sc1ccccc1: > 100 µM
- CSc1ccc(C2=NN(C(C)=O)C(c3cc(C)cs3)C2)cc1 (stereo not given): 44.1 µM
- CC[C@]1(Cc2ccc(OC)c(OC)c2)CN(S(=O)(=O)c2ccc(C)cc2)C[C@@H]1OC(C)=O: > 100 µM
- Cn1c(N2NC(=O)C(N=Nc3ccc(S(N)(=O)=O)cc3)C2=O)nc(-c2ccco2)c(C#N)c1=O (stereo not given): 27.8 µM
- COc1ccc(-c2cc(-c3ccco3)c(C#N)c(=S)n2C2OC(COC(C)=O)C(OC(C)=O)C(OC(C)=O)C2OC(C)=O)cc1 (stereo not given): > 100 µM

====

# Tested on: LOX IMVI melanoma
# protocol: NCI tumour cell line growth inhibition, 48 h; in the data active = GI50 below about 0.43 µM; inactive = the rest
Outcomes: active, inactive

• CN(C)CCNc1cc(-c2ccccc2)nc2ccccc12 = inactive
• CCOc1cccc(/C=N/NC(=O)c2ccccc2Nc2ccnc(C(F)(F)F)c2)c1O = active
• CCCCC(=O)OCC1OC(n2cnc3c(=S)nc[nH]c32)C(OC(=O)CCCC)C1OC(=O)CCCC (stereo not given) = inactive
• CC1=C(C(=O)Nc2ccc3[nH]ncc3c2)C(c2ccc3ccccc3c2)CC(=O)N1 (stereo not given) = inactive
• COc1cc(OC)cc(-c2ccc(-c3ccc(C(=N)N)o3)o2)c1 = inactive
• CSc1cc(N=Nc2nc3ccccc3s2)c2ccccc2c1O = inactive
• CCc1c(Oc2ccc(C(C)=O)cc2)c2ccccc2[nH]c1=O = inactive
• O=C(O)CCCCC(CCSCc1ccccc1)SCc1ccccc1 (stereo not given) = inactive
• CCOC(=O)/C=C(/C(=O)OCC)n1cc(Cl)c(=O)n(CC(=O)OCC)c1=O = inactive
• COc1ccc2c(c1)c(-c1nc(-c3cn(C)c4ncccc34)cs1)cn2CCCN1CCCCC1 = inactive

====

Measured TGI by item
# Test system: 786-0 renal
# protocol: NCI tumour cell line growth inhibition, 48 h
Where a SMILES comes first, the peptide text is derived from it. The star is where a group is joined. Boc = CC(C)(C)OC(=O)*
property-measured: TGI

- Cc1nc(-c2ccc([N+](=O)[O-])cc2)cn2c1nc1ccccc12: > 100 µM
- COC(=O)CC(C(C(=O)OC)C(=O)OC)N1C(=O)OCC1c1ccccc1 (stereo not drawn): > 100 µM
- COC(=O)C1(C(=O)OC)CC2=C(S(=O)(=O)c3ccccc3)C[C@H](S(=O)(=O)c3ccccc3)[C@H]2C1: > 100 µM
- Cc1ccc([C@@H]2[C@@H](C(=O)c3ccccn3)[C@H](c3ccc(C)cc3)C[C@](O)(c3ccccn3)[C@H]2C(=O)c2ccccn2)cc1: 9.15 µM
- COC(=O)CNC(=O)C(Cc1ccccc1)NC(=O)C(CCSC)NC(=O)C(Cc1ccc(O)cc1)NC(=O)OC(C)(C)C (stereo not drawn) (Boc-YMFG-OMe; configuration not given here): > 100 µM
- COC(=O)CCCCN=Cc1c(O)c(O)c(C(C)C)c2cc(C)c(-c3c(C)cc4c(C(C)C)c(O)c(O)c(C=NCCCCC(=O)OC)c4c3O)c(O)c12: 15.1 µM
- Nc1nc(=S)c2ncn(C3CC(O)C(CO)O3)c2[nH]1 (stereo not drawn): > 2350 µM
- CN(C)CCC(=O)N1C/C(=C/c2ccccc2)C(=O)/C(=C\c2ccccc2)C1: 3.62 µM

====

# Tested on: RPMI-8226 leukemia
# protocol: NCI tumour cell line growth inhibition, 48 h; in the data active = GI50 below about 0.43 µM; inactive = the rest
Outcomes: active, inactive

* N#C/C(=C1C=C/C(=N/O)C(Br)=C/1)c1ccccc1 | active
* NCC(=O)NS(=O)(=O)OC[C@H]1O[C@@H](n2cnc3c(N)ncnc32)[C@H](O)[C@@H]1O | inactive
* CC[CH2][Pb]([CH2]CC)([CH2]CC)[O]C(=O)C(F)(F)F | active
* O=C(Nc1ccc(N2CCNCC2)cc1)c1[nH]ncc1Nc1cc(Oc2ccccc2)ncn1 | inactive
* COc1ccc2[nH]c(O)c(/C=c3/cc4c(c(-c5cc(OC)c(OC)c(OC)c5)n3)=Nc3ccccc3-4)c2c1 | inactive
* Cc1ccc(CS/C(=C\c2ccc([N+](=O)[O-])cc2)C(=O)c2ccc(F)cc2)cc1 | inactive
* N#Cc1ccc(C#Cc2ccccc2C#CCCCCO)cc1 | inactive
* O=C1/C(=C/c2ccc(Br)cc2)C=C(c2ccccc2)N1CCc1ccccc1 | inactive
* CSc1cc(N=Nc2nc3ccccc3s2)c2ccccc2c1O | inactive
* CCNCCNc1cc(-c2ccc(C(=O)OC)cc2)c(C#N)c2nc3ccccc3n12 | inactive
* Cn1cc(-c2cnc3ccc(NC(=O)Nc4ccc(F)c(Br)c4)cc3n2)cn1 | inactive
* O=C(CI)NC1Oc2ccccc2-c2oc(=O)c(-c3ccccc3)cc21 (stereo not drawn) | inactive
* COc1ccc(C2=NN(C(=O)c3cc(OC)c(OC)c(OC)c3)C(c3ccc(C#N)cc3)C2)cc1OC (stereo not drawn) | inactive
